These entries and their values trace back to PubChem BioAssay (NCI).

test system: HCC-2998 colon; test: NCI tumour cell line growth inhibition, 48 h
measured-quantity: GI50

Before answering, review these 5 worked examples.
IN: Indicate the recorded GI50 value for this compound: O=C1CCC2=C3C4CCCCC4C(=O)C4CCCC(OC2C1)C34 (stereo unspecified)
OUT: 3.41 µM

IN: Identify measured GI50 corresponding to CCC(c1ccc(OC)cc1)C(CC)c1ccc(O)c(CN2CCCC2)c1 (stereo unspecified)
OUT: 2.29 µM

IN: Name the recorded GI50 of the item "N=C1C(c2nc3ccccc3s2)=C(O)CN1c1ccc(Cl)cc1Cl" in your answer.
OUT: 10.4 µM

IN: Identify measured GI50 corresponding to "C=C1SC(=Nc2ccccc2Cl)N(C(=O)c2sc3ccccc3c2Cl)C1(C)C"
OUT: 8.54 µM

IN: Please list GI50 recorded for the compound "COc1cc2c(=O)n(CCCn3ccnc3)c3c4cc5c(cc4ccc3c2cc1OC)OCO5"
OUT: 13.4 µM

Note: attention shifts to another entry.
IN: Note down GI50 recorded for "O=C1/C=C/[C@@H](O)[C@@H]2C[C@@H](O)C[C@H]2/C=C/CCC[C@H](CO)O1"
OUT: 2.61 µM
